Please go through the items and note down their log10 of IC50.
Experiment: Inhibition of P2Y12 in human platelet rich plasma assessed as reduction in ADP-induced platelet aggregation pre-incubated before ADP addition and measured after 10 mins by Bruker spectrophotometry
The base-10 logarithm of IC50, taken with IC50 in µM, is what appears here.

Qu. What log10 of IC50 value was documented for this compound, CCCSc1nc(N[C@@H]2C[C@H]2c2ccc(F)c(F)c2)c2nnn([C@@H]3C[C@H](OCCO)[C@@H](O)[C@H]3O)c2n1 [AR-C126532XX] ?
Ans. -0.49

Qu. What log10 of IC50 value was documented for this compound, CCCCCCCCn1nc2cccc([N+](=O)[O-])c2n1 ?
Ans. 2.96

Qu. What log10 of IC50 value was documented for this compound, CCCCCn1nc2cccc([N+](=O)[O-])c2n1 ?
Ans. 3.01

Qu. What log10 of IC50 value was documented for this compound, CCCn1nc2cccc([N+](=O)[O-])c2n1 ?
Ans. 3.12

Qu. What log10 of IC50 value was documented for this compound, O=[N+]([O-])c1cccc2nn(Cc3ccccc3)nc12 ?
Ans. 2.91
